Assignment: determine reported TGI for the given compounds.
Test system: IGROV1 ovarian
Assay: NCI tumour cell line growth inhibition, 48 h

Input line: Can you look up the measured TGI of O=C(c1cc(Cl)ccc1Cl)N1CCN(c2cccc(Cl)c2)CC1 for me?
Output line: 56.8 µM

Input line: Which measured TGI value corresponds to CCN(CC)C(=O)C[n+]1c2ccccc2n2cc(N)ccc21 ?
Output line: > 100 µM

Input line: Entry Clc1ccc(CSc2ncnc3c2ncn3C2CCCCO2)cc1 (stereo not given) has what TGI?
Output line: > 100 µM

Input line: For the compound shown here, CCOc1nc(-c2ccccc2)cc2c(O)c(C(=O)N/N=C/c3ccc(O)cc3O)[nH]c(=O)c12 , give the reported TGI.
Output line: 59.5 µM

Input line: // query TGI value for entry C#C[C@]1(O)CC[C@H]2[C@@H]3CCC4=CC(=NCCOC(=O)c5cccc6cc7ccccc7nc56)CC[C@@H]4[C@H]3CC[C@@]21C
Output line: 30.8 µM

---

Tested on: NCI-H23 lung
Experiment: NCI tumour cell line growth inhibition, 48 h
Reported metric: log10 TGI (log10 of the value in µM)
The figures below represent log10 of TGI, where TGI is stated in µM.

Input line: What is its log10 TGI for NCI-H23 lung? Entry: Nc1ccc(C(c2ccccc2)(c2ccccc2)c2ccccc2)cc1
Output line: 1.95

Input line: Query log10 TGI on NCI-H23 lung for C/C(=N\O)c1ccc(Nc2nc3ccccc3c3occc23)cc1
Output line: 1.80

Input line: Observed log10 TGI on NCI-H23 lung for CC(C)(C)OC(=O)C1C(=O)NC(=O)CC1CC(OCc1ccccc1)C(COCc1ccccc1)OCc1ccccc1 (stereo not given) , please.
Output line: 1.66

Input line: Query the reported log10 TGI for NCI-H23 lung; item: Fc1cnc(NC2CC2)nc1-c1cnc2ccc(N3CCOCC3)cn12
Output line: -0.02

Input line: I'm curious: which log10 TGI was measured for CN(C)c1ccc(C(=O)NCCCCCCC(=O)NO)cc1 tested on NCI-H23 lung?
Output line: 0.56

Input line: Kindly state the measured log10 TGI obtained for CCCCN1CCN(c2ccc3nc(-c4ccc5nc(-c6ccc(OC)c(OC)c6)[nH]c5c4)[nH]c3c2)CC1 with NCI-H23 lung.
Output line: 0.31

Input line: # returns recorded log10 TGI (system: NCI-H23 lung) for Nc1nc(-c2ccccc2)c(Cl)c(-c2cc(Cl)ccc2O)n1
Output line: 1.83

Input line: Find the measured log10 TGI: item CCOC(=O)N1C/C(=C/c2ccc(F)cc2)C(=O)/C(=C/c2ccc(F)cc2)C1 , target or system NCI-H23 lung.
Output line: 0.75

Input line: Fill in the recorded log10 TGI for this molecule, with NCI-H23 lung as test system: CCN(CC)Cc1cc(Nc2c3ccccc3nc3c4ccccc4n(C)c23)cc(CN(CC)CC)c1O
Output line: 1.43

---

Give measured TGI for each item. Keep answers brief.
Tested on: SK-MEL-5 melanoma
Test: NCI tumour cell line growth inhibition, 48 h

Input line: Requested read-out: TGI. Entry: COP(=O)(OC)/C(=C/c1c[nH]c2ccccc12)C(=O)O
Output line: > 100 µM

Input line: Can you look up the measured TGI of C#C[C@]1(O)CC[C@H]2[C@@H]3CCC4=CC(=NCCOC(=O)c5cccc6cc7ccccc7nc56)CC[C@@H]4[C@H]3CC[C@@]21C for me?
Output line: > 100 µM

Input line: Which TGI reading was recorded for the compound O=C1Nc2ccccc2C1=Nc1ccc(S(=O)(=O)Nc2nccs2)cc1 ?
Output line: > 100 µM

Input line: If you can, please state the reported TGI value of N#C/C(=C\c1ccccc1)c1nc(-c2cc3ccccc3oc2=O)cs1 .
Output line: > 100 µM

Input line: Can you share its TGI? I mean this compound: O=P(O)(NCCCl)NCCCl
Output line: > 100 µM

Input line: Return reported TGI; argument: CN(C)CCCNC(=O)N/N=C/c1ccc([N+](=O)[O-])cc1
Output line: > 100 µM

Input line: Entry COc1ccc(NC(=O)/C(Cc2nc3ccccc3[nH]c2=O)=N\O)c(OC)c1 : reported TGI = ?
Output line: > 100 µM

Input line: What value of TGI has been recorded for this entry: CN(Cc1cnc2c(n1)C(N)=NN(N)N2)c1ccc(C(=O)NC(CCP(=O)(O)O)C(=O)O)cc1 (stereo not given)
Output line: > 100 µM

Input line: Dear colleague, I am looking for the recorded TGI of the following compound: CN(C)Cc1cc(N=Nc2ccccc2)ccc1O
Output line: 29.4 µM

Input line: Using the record for Clc1ccccc1/C=C\C1(c2ccccc2)OCCO1 , report its TGI.
Output line: 38.6 µM

---

System: A498 renal
Assay: NCI tumour cell line growth inhibition, 48 h
Can you tell me TGI for the items I'm about to list?

Input line: What value of measured TGI is listed for ClCc1ccc(-c2ccc(Cn3cnc4nc(Cl)nc(Cl)c43)cc2)cc1 ?
Output line: 32 µM

Input line: Recorded TGI for C[N+](C)(CCNC(=O)c1cccc2cc3ccccc3nc12)Cc1ccc([N+](=O)[O-])cc1 , please?
Output line: > 100 µM

Input line: So what's the measured TGI for this one? CC(C)[C@]12O[C@H]1[C@@H]1O[C@@]13[C@@]1(C)CCC4=C(COC4=O)[C@@H]1C[C@@H]1O[C@@]13C2=O
Output line: 0.0685 µM

Input line: # lookup: TGI of O=P(O)(NCCCl)NCCCl
Output line: > 100 µM

Input line: Return reported TGI; argument: Cn1c(O)c(C2=Nc3ccccc3C2=O)c2ccccc21
Output line: > 100 µM

Input line: Entry Nc1ccc2c(c1)C(=O)N(OS(=O)(=O)c1ccccc1)C2=O has what TGI?
Output line: > 100 µM

Input line: What TGI value was documented for this compound, CCCCN1CCN(c2ccc3nc(-c4ccc5nc(-c6ccc(OC)c(OC)c6)[nH]c5c4)[nH]c3c2)CC1 ?
Output line: 2.36 µM

Input line: Value lookup for TGI; key = C=C1C(O)C23CCC4C(C(=O)O)(C(=O)O)CC(OC5OC(CO)C(O)C(OC(=O)CCc6ccccc6)C5NC(=O)CC(C)C)CC4(C)C2CCC1(O)C3 (centres undefined)
Output line: > 100 µM

Input line: Query: TGI; subject: CN(C)Cc1cc(N=Nc2ccccc2)ccc1O
Output line: 79.1 µM

---

Test system: UO-31 renal
Experiment: NCI tumour cell line growth inhibition, 48 h
Reported metric: TGI

Input line: Need TGI of Cc1cc2ncn(C3CCCO3)c2cc1C (stereo unspecified) , thanks.
Output line: > 100 µM

Input line: Any idea what its TGI is? The molecule is COc1cc(C(=O)NC(CCN)(c2ccccc2)c2ccccc2)cc(OC)c1OC
Output line: > 64.4 µM

Input line: Given the molecule CCOC(=O)C1(C)CCc2sc(N)c(C#N)c21 (stereo unspecified) , what is its reported TGI?
Output line: > 100 µM

Input line: Quick check: TGI of COc1ccc2[nH]c(S(=O)(=O)N3CC(CCl)c4ccc(N)cc43)cc2c1 (stereo unspecified) ?
Output line: 4 µM

Input line: Please give the measured TGI for this molecule: C/C(=N\O)c1ccc(Nc2nc3ccccc3c3occc23)cc1
Output line: > 100 µM

Input line: What TGI value was documented for this molecule, Cc1ccc(S(=O)(=O)N/N=C2\CC3C4C=CC3C2C4)cc1 (stereo unspecified) ?
Output line: 40.2 µM

Input line: Given the entry CN1CCN(CCCOc2ccc3nc(Nc4cc(Cl)cc(Cl)c4)ccc3c2)CC1 , report its measured TGI.
Output line: 3.24 µM

Input line: Can you look up the measured TGI of CCOC(=O)C1=C(NC(C)(C)C)OC/C1=N\NC(=O)Cc1ccccc1 for me?
Output line: > 100 µM

Input line: Dear colleague, I am looking for the recorded TGI of the following molecule: O=C(/C=C/c1ccc(Cl)cc1)/C=C/c1cc2ccccc2[nH]c1=O
Output line: 20 µM

Input line: Record request: TGI value, item CSc1ncc2c(n1)-c1ccccc1OC2N1CCCCC1 (stereo unspecified)
Output line: > 100 µM

Input line: Would you mind telling me what TGI value was observed for CC(C)c1cc(Cl)nc(Cl)n1 ?
Output line: > 100 µM

---

Tested on: PC-3 prostate
Test: NCI tumour cell line growth inhibition, 48 h
Would you kindly list GI50 for each of these compounds?

Input line: API: value(readout= GI50, system= PC-3 prostate, query= O=C(/C=C/c1ccc(Cl)cc1)/C=C/c1cc2ccccc2[nH]c1=O )
Output line: 2.91 µM

Input line: Notebook entry, PC-3 prostate assay: GI50 of O=C1C=CC(=O)N1C1CCCCCCCCCCC1 = ?
Output line: 14.2 µM

Input line: PC-3 prostate / GI50 / O=C(Nc1ccc(CN2CCOCC2)cc1)c1ccc(-c2cc(Cl)ccc2Cl)o1 : value?
Output line: 8.63 µM

Input line: Reported GI50 for PC-3 prostate, given CC(=O)O[C@H]1CCC2(C)C(=CCC3C2CCC2(C)/C(=N/OC(=O)c4ccc(N(CCCl)CCCl)cc4)CCC32)C1 (stereo not given in full) ?
Output line: 7.99 µM

Input line: # value lookup — system PC-3 prostate, readout GI50, item COc1ccc2[nH]c(-c3ccccc3)c(/C=C(\C#N)S(=O)(=O)c3ccccc3)c2c1
Output line: 8.3 µM
